- System: 885724-159-R-J1-PDC complex spheroid viability
- Assay Protocol: Anticancer human tumor 885724-159-R-J1-PDC patient-derived pancreatic adenocarcinoma cell line growth inhibition [POLQ]
- Condition Details: second compound 0.316 µM; first compound 0.00316 µM; active compounds read low
Measurement Kind: viability, T/C (%)
Write the number in % without appending the unit.

>>> endpoint_result("Cn1ncnc1[C@H]1c2n[nH]c(=O)c3cc(F)cc(c23)N[C@@H]1c1ccc(F)cc1 + COC1C(OC(N)=O)C(O)C(Oc2ccc3c(O)c(NC(=O)c4ccc(O)c(CC=C(C)C)c4)c(=O)oc3c2C)OC1(C)C")
95.6
>>> endpoint_result("COc1cccc(OCCCN)c1-c1cc(Nc2cnc(C#N)cn2)n[nH]1 + Nc1ccc(C#CCN(C(=O)Cc2ncc(C(F)(F)F)cc2C(F)(F)F)c2ccc(F)cc2)nn1")
77.3
>>> endpoint_result("Cn1ncnc1[C@H]1c2n[nH]c(=O)c3cc(F)cc(c23)N[C@@H]1c1ccc(F)cc1 + Nc1ccc(C#CCN(C(=O)Cc2ncc(C(F)(F)F)cc2C(F)(F)F)c2ccc(F)cc2)nn1")
89.8

Request: Suppose we examine the compound C=CCn1c(=O)c2cnc(Nc3ccc(N4CCN(C)CC4)cc3)nc2n1-c1cccc(C(C)(C)O)n1 + COC1C(OC(N)=O)C(O)C(Oc2ccc3c(O)c(NC(=O)c4ccc(O)c(CC=C(C)C)c4)c(=O)oc3c2C)OC1(C)C ; what viability, T/C value has been reported?
Response: 103

Request: What do we get for CCc1c2c(nc3ccc(O)cc13)-c1cc3c(c(=O)n1C2)COC(=O)[C@]3(O)CC + Nc1ccc(C#CCN(C(=O)Cc2ncc(C(F)(F)F)cc2C(F)(F)F)c2ccc(F)cc2)nn1 ?
Response: 83.1

###

We begin with a simple list: items and their reported viability, T/C.
- Test system: 885724-159-R-J1-PDC complex spheroid viability
- Assay Protocol: Anticancer human tumor 885724-159-R-J1-PDC cell line growth inhibition [POLQ];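 further: spheroids exposed to compounds for 7 days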
- Condition Details: second compound 10 µM; first compound 0.316 µM; active compounds read low
Write the number in % without appending the unit.

Request: Suppose we examine the molecule CCc1cc2c(N3CCc4c(cc(Cn5ccnc5)cc4-c4cn(C)nc4C(F)(F)F)C3=O)cc(C)nc2c(OC)n1 + Cc1cccc(N(C)C(=O)C2C(O)CCN2c2nc(C)cc(C(F)(F)F)c2C#N)c1 ; what viability, T/C value has been reported?
Response: 87.5

Request: What do we get for COc1cccc(OCCCN)c1-c1cc(Nc2cnc(C#N)cn2)n[nH]1 + COC1C(OC(N)=O)C(O)C(Oc2ccc3c(O)c(NC(=O)c4ccc(O)c(CC=C(C)C)c4)c(=O)oc3c2C)OC1(C)C ?
Response: 43.5

Request: What do we get for CNCc1ccc(-c2[nH]c3cc(F)cc4c3c2CCNC4=O)cc1 + Cc1cccc(N(C)C(=O)C2C(O)CCN2c2nc(C)cc(C(F)(F)F)c2C#N)c1 ?
Response: 85.2

Request: What do we get for COc1cc(C2c3cc4c(cc3C(OC3OC5COC(C)OC5C(O)C3O)C3COC(=O)C23)OCO4)cc(OC)c1O (stereo not given) + Cc1cccc(N(C)C(=O)C2C(O)CCN2c2nc(C)cc(C(F)(F)F)c2C#N)c1 ?
Response: 74.9

Request: What do we get for CCc1cc2c(N3CCc4c(cc(Cn5ccnc5)cc4-c4cn(C)nc4C(F)(F)F)C3=O)ccnc2c(OC)n1 + Cc1cccc(N(C)C(=O)C2C(O)CCN2c2nc(C)cc(C(F)(F)F)c2C#N)c1 ?
Response: 86.4

Request: What do we get for O=c1[nH]cc(F)c(=O)[nH]1 + Cc1cccc(N(C)C(=O)C2C(O)CCN2c2nc(C)cc(C(F)(F)F)c2C#N)c1 ?
Response: 89.8

Request: What do we get for COc1cc(C2c3cc4c(cc3C(OC3OC5COC(C)OC5C(O)C3O)C3COC(=O)C23)OCO4)cc(OC)c1O (stereo not given) + COC1C(OC(N)=O)C(O)C(Oc2ccc3c(O)c(NC(=O)c4ccc(O)c(CC=C(C)C)c4)c(=O)oc3c2C)OC1(C)C ?
Response: 64.7

Request: What do we get for COc1ccc([C@@H](O)c2cc(-c3ncnc4cc(N5CCOCC5)ccc34)c(F)cc2Cl)nn1 + Nc1ccc(C#CCN(C(=O)Cc2ncc(C(F)(F)F)cc2C(F)(F)F)c2ccc(F)cc2)nn1 ?
Response: 87.4

Request: What do we get for CC1COCCN1c1cc(C2(S(C)(=N)=O)CC2)nc(-c2ccnc3[nH]ccc23)n1 (stereo not given) + Nc1ccc(C#CCN(C(=O)Cc2ncc(C(F)(F)F)cc2C(F)(F)F)c2ccc(F)cc2)nn1 ?
Response: 94.7

Request: What do we get for O=C(c1cc(Cc2n[nH]c(=O)c3ccccc23)ccc1F)N1CCN(C(=O)C2CC2)CC1 + COC1C(OC(N)=O)C(O)C(Oc2ccc3c(O)c(NC(=O)c4ccc(O)c(CC=C(C)C)c4)c(=O)oc3c2C)OC1(C)C ?
Response: 92.4

Request: What do we get for C=CC(=O)N1CCN(c2nc(=O)n(-c3c(C)ccnc3C(C)C)c3nc(-c4c(O)cccc4F)c(F)cc23)C(C)C1 (stereo not given) + Nc1ccc(C#CCN(C(=O)Cc2ncc(C(F)(F)F)cc2C(F)(F)F)c2ccc(F)cc2)nn1 ?
Response: 98.6

Request: What do we get for CCCS(=O)(=O)Nc1ccc(F)c(C(=O)c2c[nH]c3ncc(-c4ccc(Cl)cc4)cc23)c1F + COC1C(OC(N)=O)C(O)C(Oc2ccc3c(O)c(NC(=O)c4ccc(O)c(CC=C(C)C)c4)c(=O)oc3c2C)OC1(C)C ?
Response: 128

Request: What do we get for C=CCn1c(=O)c2cnc(Nc3ccc(N4CCN(C)CC4)cc3)nc2n1-c1cccc(C(C)(C)O)n1 + Cc1cccc(N(C)C(=O)C2C(O)CCN2c2nc(C)cc(C(F)(F)F)c2C#N)c1 ?
Response: 61.6

Request: What do we get for Nc1ccn(C2OC(CO)C(O)C2(F)F)c(=O)n1 (stereo not given) + COC1C(OC(N)=O)C(O)C(Oc2ccc3c(O)c(NC(=O)c4ccc(O)c(CC=C(C)C)c4)c(=O)oc3c2C)OC1(C)C ?
Response: 52.9

Request: What do we get for CC1COCCN1c1cc(-c2ccnn2C)c2ccnc(-c3ccn[nH]3)c2n1 (stereo not given) + Cc1cccc(N(C)C(=O)C2C(O)CCN2c2nc(C)cc(C(F)(F)F)c2C#N)c1 ?
Response: 50.4

Request: What do we get for CCc1cc2c(N3CCc4c(cc(Cn5ccnc5)cc4-c4cn(C)nc4C(F)(F)F)C3=O)cc(C)nc2c(OC)n1 + COC1C(OC(N)=O)C(O)C(Oc2ccc3c(O)c(NC(=O)c4ccc(O)c(CC=C(C)C)c4)c(=O)oc3c2C)OC1(C)C ?
Response: 77.2

Request: What do we get for CC1COCCN1c1cc(C2(O)CC3CCC(C2)O3)c2cnn(-c3ccn[nH]3)c2n1 (stereo not given) + Cc1cccc(N(C)C(=O)C2C(O)CCN2c2nc(C)cc(C(F)(F)F)c2C#N)c1 ?
Response: 48.8

Request: What do we get for CC1COCCN1c1cc(C2(S(C)(=N)=O)CC2)nc(-c2ccnc3[nH]ccc23)n1 (stereo not given) + COC1C(OC(N)=O)C(O)C(Oc2ccc3c(O)c(NC(=O)c4ccc(O)c(CC=C(C)C)c4)c(=O)oc3c2C)OC1(C)C ?
Response: 94.1

Request: What do we get for C=CCn1c(=O)c2cnc(Nc3ccc(N4CCN(C)CC4)cc3)nc2n1-c1cccc(C(C)(C)O)n1 + Nc1ccc(C#CCN(C(=O)Cc2ncc(C(F)(F)F)cc2C(F)(F)F)c2ccc(F)cc2)nn1 ?
Response: 63.7

Request: What do we get for COc1cccc2c1C(=O)c1c(O)c3c(c(O)c1C2=O)CC(O)(C(=O)CO)CC3OC1CC(N)C(O)C(C)O1 (stereo not given) + Nc1ccc(C#CCN(C(=O)Cc2ncc(C(F)(F)F)cc2C(F)(F)F)c2ccc(F)cc2)nn1 ?
Response: 36.1

###

- Tested on: 885724-159-R-J1-PDC complex spheroid viability
- Assay Protocol: Anticancer human tumor 885724-159-R-J1-PDC cell line growth inhibition [POLQ];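 further: spheroids exposed to compounds for 7 days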
- Condition Details: second compound 0.1 µM; first compound 10 µM; active compounds read low
Kindly apply the following: Yes if viability, T/C is less than 70%, No in every other case.

Reference set (2 entries):
>>> cat("COc1cccc2c1C(=O)c1c(O)c3c(c(O)c1C2=O)CC(O)(C(=O)CO)CC3OC1CC(N)C(O)C(C)O1 (stereo not given) + Cc1cccc(N(C)C(=O)C2C(O)CCN2c2nc(C)cc(C(F)(F)F)c2C#N)c1")
"Yes"
>>> cat("O=C(Nc1ccc(O)c(NS(=O)(=O)c2ccc(F)cc2)c1)c1ccc(-c2ccccc2)cc1 + Cc1cccc(N(C)C(=O)C2C(O)CCN2c2nc(C)cc(C(F)(F)F)c2C#N)c1")
"No"

Request: Quick check: viability, T/C of O=C(c1cc(Cc2n[nH]c(=O)c3ccccc23)ccc1F)N1CCN(C(=O)C2CC2)CC1 + Nc1ccc(C#CCN(C(=O)Cc2ncc(C(F)(F)F)cc2C(F)(F)F)c2ccc(F)cc2)nn1 under 70%?
Response: No

Request: What do we get for CC(C)n1c(=O)n(C)c2cnc3cc(F)c(-c4ccc(OCCCN5CCCCC5)nc4)cc3c21 + COC1C(OC(N)=O)C(O)C(Oc2ccc3c(O)c(NC(=O)c4ccc(O)c(CC=C(C)C)c4)c(=O)oc3c2C)OC1(C)C ?
Response: No
